This collection of values is drawn from patent US9938261B2.

# Study Target: kinase panel containing either 386 or 392 distinct kinases
# Method: Kinase selectivity score S10 from competition binding panel
# Cond: 10 μM, panel of 386 or 392 distinct kinases
Measure Name: Kinase specificity S(10)

> print(dat)
                  compound.structure.string                              study.target  measured.result
1  O=C(O)/C=C/c1ccc2c(c1)ncn2Cc1ccc2nc(N[C@@H]3CCCC[C@H]3O)sc2c1  kinase panel containing either 386 or 392 distinct kinases       A (A≤0.01)
2  CS(=O)(=O)c1ccc2ncn(Cc3ccc4nc(N[C@@H]5CCCC[C@H]5O)sc4c3)c2c1  kinase panel containing either 386 or 392 distinct kinases       A (A≤0.01)
3  O[C@@H]1[C@H](O)CCC[C@H]1Nc1nc2ccc(Cn3cnc4cc(F)cnc43)cc2s1  kinase panel containing either 386 or 392 distinct kinases       A (A≤0.01)

----------
# Study Target: kinase panel containing either 386 or 392 distinct kinases
# Method: Kinase selectivity score S10 from competition binding panel
# Cond: 10 μM, panel of 386 or 392 distinct kinases
Measure Name: Kinase specificity S(10)

Completed entries (count: 5):
> print(dat)
                  compound.structure.string  measured.result
1  Fc1cnc2c(c1)ncn2Cc1ccc2nc(N[C@H]3C=CCCC3)sc2c1  B (0.01<B≤0.02)
2  OCc1ccc2ncc(Cc3ccc4nc(N[C@@H]5CCCC[C@H]5O)sc4c3)n2n1  B (0.01<B≤0.02)
3  C=Cc1ccn2c(Cc3ccc4nc(N[C@@H]5CCCC[C@H]5O)sc4c3)cnc2c1       A (A≤0.01)
4  CCOc1ccc2c(c1)ncn2Cc1ccc2nc(N[C@@H]3CCCC[C@H]3O)sc2c1       A (A≤0.01)
5  O[C@@H]1CCCC[C@H]1Nc1nc2ccc(Cn3cnc4cc(-n5cncn5)cnc43)cc2s1       A (A≤0.01)

**Query** Bench note: what Kinase specificity S(10) did "COc1ccc2ncc(Cc3ccc4nc(N[C@@H]5CCCC[C@H]5O)sc4c3)n2c1" show?
**Result** A (A≤0.01)

**Query** Bench note: what Kinase specificity S(10) did "COc1nc2c(cc1Br)ncn2Cc1ccc2nc(N[C@@H]3CCCC[C@H]3O)sc2c1" show?
**Result** B (0.01<B≤0.02)

**Query** Tell me the measured Kinase specificity S(10) of "OC[C@H]1CC[C@H](Nc2nc3ccc(Cn4cnc5cc(F)cnc54)cc3s2)CC1" , please.
**Result** B (0.01<B≤0.02)

----------
# Study Target: FLT3 (Homo sapiens, UniProt P36888)
# Construct: made in house
# Sequence (P36888 27-993): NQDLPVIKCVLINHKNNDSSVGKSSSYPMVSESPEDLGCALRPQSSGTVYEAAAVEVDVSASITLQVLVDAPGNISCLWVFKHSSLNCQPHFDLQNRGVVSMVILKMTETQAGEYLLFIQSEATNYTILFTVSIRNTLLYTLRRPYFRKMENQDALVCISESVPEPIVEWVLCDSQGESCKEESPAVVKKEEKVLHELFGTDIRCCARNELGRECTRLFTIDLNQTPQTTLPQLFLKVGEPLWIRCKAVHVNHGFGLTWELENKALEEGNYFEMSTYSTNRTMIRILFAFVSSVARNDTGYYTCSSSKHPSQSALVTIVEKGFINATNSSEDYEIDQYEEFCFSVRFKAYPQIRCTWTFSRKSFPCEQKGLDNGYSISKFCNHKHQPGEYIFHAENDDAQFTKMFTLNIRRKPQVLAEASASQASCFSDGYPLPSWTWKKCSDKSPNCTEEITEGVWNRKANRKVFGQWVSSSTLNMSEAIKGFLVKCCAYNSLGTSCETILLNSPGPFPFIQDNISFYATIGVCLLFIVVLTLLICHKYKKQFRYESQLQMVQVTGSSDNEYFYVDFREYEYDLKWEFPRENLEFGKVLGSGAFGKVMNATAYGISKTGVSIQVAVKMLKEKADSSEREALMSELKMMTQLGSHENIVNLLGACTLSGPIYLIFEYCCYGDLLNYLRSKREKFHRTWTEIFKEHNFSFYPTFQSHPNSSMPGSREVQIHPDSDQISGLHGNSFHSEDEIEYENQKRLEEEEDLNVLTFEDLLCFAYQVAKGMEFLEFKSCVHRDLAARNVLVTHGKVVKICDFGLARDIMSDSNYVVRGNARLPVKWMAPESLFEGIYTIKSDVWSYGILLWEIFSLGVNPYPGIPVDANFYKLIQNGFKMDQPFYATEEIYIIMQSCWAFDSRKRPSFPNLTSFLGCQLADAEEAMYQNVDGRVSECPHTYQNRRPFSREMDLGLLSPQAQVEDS
# Method: Competition binding assay, FLT3 Kd
Measure Name: Kd

Consider the following illustrative entries.
> print(dat)
                  compound.structure.string  measured.result
1  COc1ccc2c(c1)ncn2Cc1ccc2nc(N[C@@H]3CCCC[C@H]3O)sc2c1  1000 to 5000 nM
2  O[C@@H]1CCCC[C@H]1Nc1nc2ccc(Cn3cnc4cccnc43)cc2o1   200 to 1000 nM
3  COc1ccc2ncn(Cc3ccc4nc(N[C@@H]5CCCC[C@H]5O)sc4c3)c2n1         ≤ 200 nM

# evaluate next
**Query** Need Kd, item "COc1cc2ncn(Cc3ccc4nc(N[C@@H]5CCCC[C@H]5O)sc4c3)c2cc1-c1cnn(C)c1"
**Result** ≤ 200 nM

----------
# Study Target: kinase panel containing either 386 or 392 distinct kinases
# Method: Kinase selectivity score S10 from competition binding panel
# Cond: 10 μM, panel of 386 or 392 distinct kinases
Measure Name: Kinase specificity S(10)

Examples with answers:
> print(dat)
                                   compound                              study.target  measured.result
1  COCCOc1ccn2c(Cc3ccc4nc(N[C@@H]5CCCC[C@H]5O)sc4c3)cnc2c1  kinase panel containing either 386 or 392 distinct kinases       A (A≤0.01)
2  OC1CCN(c2ccn3c(Cc4ccc5nc(N[C@@H]6CCCC[C@H]6O)sc5c4)cnc3c2)CC1  kinase panel containing either 386 or 392 distinct kinases       A (A≤0.01)
3  CC(C)(O)C#Cc1cnc2c(c1)ncn2Cc1ccc2nc(N[C@@H]3CCCC[C@H]3O)sc2c1  kinase panel containing either 386 or 392 distinct kinases       A (A≤0.01)
4  O[C@@H]1CCCC[C@H]1Nc1nc2ccc(Cn3cnc4cc(F)cc(F)c43)cc2s1  kinase panel containing either 386 or 392 distinct kinases       A (A≤0.01)
5  CC(O)c1ccn2c(Cc3ccc4nc(N[C@@H]5CCCC[C@H]5O)sc4c3)cnc2c1 (some centres unmarked)  kinase panel containing either 386 or 392 distinct kinases       A (A≤0.01)

**Query** Look up Kinase specificity S(10): "O[C@@H]1CCCC[C@H]1Nc1nc2ccc(Cn3cnc4cc(-c5cc[nH]n5)ccc43)cc2s1"
**Result** C (C>0.02)

**Query** Entry "N#Cc1cnc2c(c1)ncn2Cc1ccc2nc(N[C@@H]3CCCC[C@H]3CO)sc2c1" : reported Kinase specificity S(10) = ?
**Result** A (A≤0.01)

**Query** Item under review: "O[C@@H]1[C@H](O)CCC[C@H]1Nc1nc2ccc(Cc3cnc4cc(-n5cccn5)ccn34)cc2s1" . Reported Kinase specificity S(10)?
**Result** A (A≤0.01)

**Query** I'd like to know its Kinase specificity S(10). The compound in question is "O[C@@H]1CCCC[C@H]1Nc1nc2ccc(Cn3cnc4cc(Br)cc(F)c43)cc2s1"
**Result** A (A≤0.01)

**Query** Reported Kinase specificity S(10) for "O[C@@H]1CCCC[C@H]1Nc1nc2ccc(Cc3cnc4cc(-n5nccn5)ccn34)cc2s1" : what is it?
**Result** A (A≤0.01)

**Query** Quick one: Kinase specificity S(10) of "OC[C@H]1CC[C@@H](Nc2nc3ccc(Cn4cnc5cc(F)cnc54)cc3s2)CC1" ?
**Result** A (A≤0.01)

**Query** Find the recorded Kinase specificity S(10) belonging to "O[C@@H]1CCCC[C@H]1Nc1nc2ccc(Cn3cnc4cc(OC5COC5)ccc43)cc2s1" and report it.
**Result** A (A≤0.01)

**Query** What does the record list as Kinase specificity S(10) for "C#Cc1ccc2c(c1)ncn2Cc1ccc2nc(N[C@@H]3CCCC[C@H]3O)sc2c1" ?
**Result** A (A≤0.01)

**Query** Look up Kinase specificity S(10): "O[C@@H]1CCCC[C@H]1Nc1nc2ccc(Cn3cnc4cc(OCCN5CCOCC5)ccc43)cc2s1"
**Result** C (C>0.02)

**Query** Need Kinase specificity S(10), item "O[C@@H]1CCCC[C@H]1Nc1nc2ccc(Cc3cnc4cccnn34)cc2s1"
**Result** B (0.01<B≤0.02)

**Query** Look at this compound and give its reported Kinase specificity S(10). "O[C@@H]1CCCC[C@H]1Nc1nc2cc(F)c(Cn3cnc4cccnc43)cc2s1"
**Result** A (A≤0.01)

**Query** Requested read-out: Kinase specificity S(10). Entry: "O[C@@H]1CCCC[C@H]1Nc1nc2ccc(Cn3cnc4cc(C(F)(F)F)cnc43)cc2s1"
**Result** A (A≤0.01)

**Query** For "O[C@@H]1CCCC[C@H]1Nc1nc2ccc(Cn3cnc4cc(-n5cncn5)ccc43)cc2s1" , what is its reported Kinase specificity S(10)?
**Result** A (A≤0.01)

**Query** Tell me the measured Kinase specificity S(10) of "OC[C@H]1CCCC[C@H]1Nc1nc2ccc(Cn3cnc4cc(Br)cnc43)cc2s1" , please.
**Result** B (0.01<B≤0.02)

**Query** So what does the record say about Kinase specificity S(10) for "CON=C(C)c1ccn2c(Cc3ccc4nc(N[C@@H]5CCCC[C@H]5O)sc4c3)cnc2c1" ?
**Result** A (A≤0.01)

**Query** Need Kinase specificity S(10), item "O=c1c(N2CCOCC2)nccn1Cc1ccc2nc(N[C@@H]3CCCC[C@H]3O)sc2c1"
**Result** A (A≤0.01)

**Query** Endpoint output: Kinase specificity S(10) of "O[C@@H]1CCCC[C@H]1Nc1nc2ccc(Cn3cnc4cc(OC(F)(F)F)ccc43)cc2s1" . Value?
**Result** A (A≤0.01)

**Query** Given the compound "O[C@@H]1CCCC[C@H]1Nc1nc2ccc(Cc3cnc4ccc(Br)nn34)cc2s1" , what is its reported Kinase specificity S(10)?
**Result** C (C>0.02)

**Query** What value of measured Kinase specificity S(10) is listed for "N#Cc1ccc2ncn(Cc3ccc4nc(N[C@@H]5CCCC[C@H]5O)sc4c3)c2c1" ?
**Result** A (A≤0.01)

**Query** Look up Kinase specificity S(10): "O[C@@H]1CCCC[C@H]1Nc1nc2ccc(Cc3cnc4cc(-n5cncn5)ccn34)cc2s1"
**Result** A (A≤0.01)

**Query** Please give the measured Kinase specificity S(10) for this compound: "O[C@@H]1CCCC[C@H]1Nc1nc2ccc(Cn3cnc4cc(F)ccc43)cc2s1"
**Result** B (0.01<B≤0.02)
